The entries below come with measured Ki values attached.
- assay_system: human alpha 1a adrenergic receptor (Homo sapiens, UniProt P35348)
- Sequence (P35348 1-466): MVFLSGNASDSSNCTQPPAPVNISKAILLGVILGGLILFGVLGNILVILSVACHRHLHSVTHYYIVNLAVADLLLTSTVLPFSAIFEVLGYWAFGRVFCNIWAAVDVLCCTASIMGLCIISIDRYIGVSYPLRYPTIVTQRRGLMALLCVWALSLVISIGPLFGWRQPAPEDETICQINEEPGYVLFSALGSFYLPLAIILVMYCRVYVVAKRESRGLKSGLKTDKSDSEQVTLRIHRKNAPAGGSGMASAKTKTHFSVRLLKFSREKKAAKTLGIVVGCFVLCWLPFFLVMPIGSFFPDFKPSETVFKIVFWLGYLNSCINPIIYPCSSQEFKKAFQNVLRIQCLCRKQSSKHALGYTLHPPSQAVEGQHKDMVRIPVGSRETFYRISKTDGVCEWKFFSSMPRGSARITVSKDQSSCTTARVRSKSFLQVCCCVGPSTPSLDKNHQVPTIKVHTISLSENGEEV
Structures can show the parent of a compound that is named as a salt.

{"compound": "Cl.O=C(N[C@@H]1CCN([C@H]2CC[C@@H](c3ccccn3)CC2)C1)N1C(=O)OC[C@@H]1c1ccc(F)c(F)c1 [Example 12, hydrochloride]", "assay_system": "human alpha 1a adrenergic receptor (Homo sapiens, UniProt P35348)", "Ki": "< 200 nM"}

Next compound, please.
So what does the record say about Ki for COc1ccccc1[C@H]1CC[C@@H](N2CC[C@@H](NC(=O)N3C(=O)OC[C@@H]3c3ccc(F)c(F)c3)C2)CC1 [Example 16, hydrochloride] ?
~800 nM
